Target: T1, human CD3εδ-Fc heterodimer (Hu CD3ε Fc / CD3δ Fc-HIS) (human, UniProt P04234 22-100)
T1 construct: range 22-100; Produced in HEK 293 cells with a heterologous signal peptide; heterodimer purified by Ni Sepharose and Mono Q; also called Hu CD3εδ Fc heterodimer; CD3εδ Fc-HIS heterodimer; not shown: Fc-HIS part of CD3δ Fc-HIS
T1 sequence (chain, as listed by the source mutant, form in doubt, chain 1 of 2): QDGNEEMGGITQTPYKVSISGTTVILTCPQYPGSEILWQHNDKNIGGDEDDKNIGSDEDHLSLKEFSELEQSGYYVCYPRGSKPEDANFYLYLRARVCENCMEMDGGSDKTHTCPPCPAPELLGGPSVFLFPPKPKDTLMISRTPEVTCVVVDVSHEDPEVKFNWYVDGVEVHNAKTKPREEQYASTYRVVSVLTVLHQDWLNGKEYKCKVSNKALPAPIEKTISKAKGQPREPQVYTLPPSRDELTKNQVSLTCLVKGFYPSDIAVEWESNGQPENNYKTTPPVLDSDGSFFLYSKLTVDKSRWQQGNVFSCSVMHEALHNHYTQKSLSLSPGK
T1 sequence (P04234 22-100, stated change not applied, form in doubt, chain 2 of 2): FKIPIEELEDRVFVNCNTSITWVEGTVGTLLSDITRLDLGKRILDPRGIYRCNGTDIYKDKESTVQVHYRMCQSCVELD
Assay: SPR (Biacore 8K), CHO-produced Fab, monovalent, pH 6.0
Description: Anti-CD3 antibodies (Antibody Nos. 1-13) were produced as human IgG1 antibodies in yeast or Chinese hamster ovary (CHO) cells, and Fab fragments were generated from the IgG1 antibodies by papain digestion and purified IgGs produced in yeast were aglycosylated. CHO produced IgGs had standard CH2 glycosylation. […]
Quick reference: Kd of the listed items.

# binder, Kd (nM)
records = [
    ("Fab of ADI-74966 (Antibody No. 4) (Fab, V domains shown, Fab made by papain digestion of the human IgG1 (yeast- or CHO-produced); also called Antibody No. 4 Fab; ADI-74966 Fab) VH: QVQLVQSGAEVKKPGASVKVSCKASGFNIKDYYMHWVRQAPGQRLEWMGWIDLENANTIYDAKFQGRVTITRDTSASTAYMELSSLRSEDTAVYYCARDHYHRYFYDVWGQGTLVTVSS VL: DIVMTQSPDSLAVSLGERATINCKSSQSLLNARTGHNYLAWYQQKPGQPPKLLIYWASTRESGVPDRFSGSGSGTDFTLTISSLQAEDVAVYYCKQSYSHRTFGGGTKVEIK", 19.5),
    ("Fab of ADI-74965 (Antibody No. 3) (Fab, V domains shown, Fab made by papain digestion of the human IgG1 (yeast- or CHO-produced); also called Antibody No. 3 Fab; ADI-74965 Fab) VH: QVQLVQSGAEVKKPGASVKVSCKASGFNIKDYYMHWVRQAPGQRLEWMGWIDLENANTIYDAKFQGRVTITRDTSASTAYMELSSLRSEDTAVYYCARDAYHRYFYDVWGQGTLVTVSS VL: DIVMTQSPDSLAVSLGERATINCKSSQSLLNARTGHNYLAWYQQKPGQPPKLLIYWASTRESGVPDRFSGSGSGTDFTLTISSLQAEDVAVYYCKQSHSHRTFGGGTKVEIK", 10.9),
    ("Fab of ADI-74967 (Antibody No. 5) (Fab, V domains shown, Fab made by papain digestion of the human IgG1 (yeast- or CHO-produced); also called Antibody No. 5 Fab; ADI-74967 Fab) VH: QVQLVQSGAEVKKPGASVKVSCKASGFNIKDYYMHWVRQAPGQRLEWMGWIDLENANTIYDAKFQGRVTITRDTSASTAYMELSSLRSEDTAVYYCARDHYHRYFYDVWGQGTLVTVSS VL: GIVMTQSPDSLAVSLGERATINCKSSQSLLNARTGKNYLAWYQQKPGQPPKLLIYWASTRESGVPDRFSGSGSGTDFTLTISSLQAEDVAVYYCKQSHSHRTFGGGTKVEIK", 8.16),
]
